FYI, the data here is from patent US20220056014A1.

# METHOD DESCRIPTION: Pharmacokinetic test in canine
# Format: in vivo, beagle dogs
# STATED CONDITIONS: male, beagle, dog, plasma, oral gavage 5 mg/kg
OBSERVABLE: Cmax (ng/mL)

Consider the worked cases shown below.
MOLECULE	OBSERVABLE	UOM	VALUE REPORTED
COc1ccc([C@@H]2CN(C(=O)[C@@H](O)CO)C[C@@]2(C)[C@@H](C)O)cc1OC1CN(c2cc(C)c(C)cn2)C1 [Compound 008]	Cmax	ng/mL	534
COc1ccc([C@@H]2CN(C(=O)[C@@H](O)CO)C[C@@]2(C)[C@@H](C)O)cc1OC1CN(c2ncc(C)cc2F)C1 [Compound 004]	Cmax	ng/mL	484

(1) COc1ccc([C@@H]2CN(C(=O)[C@@H](O)CO)C[C@@]2(C)[C@@H](C)O)cc1OC1CN(c2ccc(C)c(C)n2)C1 [Compound 007]
(2) COc1ccc([C@@H]2CN(C(=O)[C@@H](O)CO)C[C@@]2(C)[C@@H](C)O)cc1OC1CN(c2ccc(C)cn2)C1 [Positive control compound, reference compound]
Exercise: Quick one: lower Cmax, 1 or 2 ? To answer, give the label that identifies your chosen option.
Key: 2
(2: 159 ng/mL, 1: 689 ng/mL)

---

# METHOD DESCRIPTION: Mouse pharmacokinetic test
# Format: in vivo, CD-1 mice
# STATED CONDITIONS: male, CD-1, plasma, oral gavage 10 mg/kg
OBSERVABLE: Cmax (ng/mL)

COMPOUND	UOM	Cmax
COc1ccc([C@@H]2CN(C(=O)[C@@H](O)CO)C[C@@]2(C)[C@@H](C)O)cc1OC1CN(c2cc(Cl)c(C)cn2)C1 [Compound 002]	ng/mL	355

(I) COc1ccc([C@@H]2CN(C(=O)[C@@H](O)CO)C[C@@]2(C)[C@@H](C)O)cc1OC1CN(c2cc(C)c(Cl)cn2)C1 [Compound 010]
(II) COc1ccc([C@@H]2CN(C(=O)[C@@H](O)CO)C[C@@]2(C)[C@@H](C)O)cc1OC1CN(c2ccc(C)cn2)C1 [Positive control compound, reference compound]
Exercise: Quick one: lower Cmax, I or II ? To answer, give the label that identifies your chosen option.
Key: II
(II: 142 ng/mL, I: 314 ng/mL)

---

Each entry below carries its measured IC50, system: UniProtKB Q07343.
Sequence (Q07343 whole entry): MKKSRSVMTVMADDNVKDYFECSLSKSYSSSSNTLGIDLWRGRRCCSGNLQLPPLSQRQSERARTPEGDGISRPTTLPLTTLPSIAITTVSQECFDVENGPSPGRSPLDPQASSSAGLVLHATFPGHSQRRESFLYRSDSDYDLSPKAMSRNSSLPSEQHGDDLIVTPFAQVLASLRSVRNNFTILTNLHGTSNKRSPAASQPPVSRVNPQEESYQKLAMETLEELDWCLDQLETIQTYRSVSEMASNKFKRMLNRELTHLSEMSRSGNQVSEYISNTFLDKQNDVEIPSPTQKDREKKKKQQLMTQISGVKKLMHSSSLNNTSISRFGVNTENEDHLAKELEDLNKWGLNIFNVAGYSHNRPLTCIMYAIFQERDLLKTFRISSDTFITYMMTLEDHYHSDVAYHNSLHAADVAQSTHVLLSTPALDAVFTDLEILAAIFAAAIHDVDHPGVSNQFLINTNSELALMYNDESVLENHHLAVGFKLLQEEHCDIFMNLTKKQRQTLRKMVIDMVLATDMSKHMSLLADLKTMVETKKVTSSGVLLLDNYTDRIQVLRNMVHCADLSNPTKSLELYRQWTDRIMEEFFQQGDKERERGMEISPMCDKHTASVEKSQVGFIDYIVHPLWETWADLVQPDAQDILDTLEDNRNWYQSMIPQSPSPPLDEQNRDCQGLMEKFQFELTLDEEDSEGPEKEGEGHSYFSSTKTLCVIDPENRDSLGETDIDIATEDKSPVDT
OBSERVABLE: IC50 (nM)

Consider the worked cases shown below.
MOLECULE	OBSERVABLE	VALUE REPORTED
CCOc1ccc(N2CC(Oc3cc([C@@H]4CN(C(=O)[C@@H](O)CO)C[C@@]4(C)[C@@H](C)O)ccc3OC)C2)nc1	IC50	0.75
COc1ccc([C@@H]2CN(C(=O)[C@@H](O)CO)C[C@@]2(C)[C@@H](C)O)cc1OC1CN(c2ccc(OC(C)C)cn2)C1	IC50	2.22
COc1ccc([C@@H]2CN(C(=O)[C@@H](O)CO)C[C@@]2(C)[C@@H](C)O)cc1OC1CN(c2cc(C)c(C)cn2)C1	IC50	1.46

(1) COc1ccc(N2CC(Oc3cc([C@@H]4CN(C(=O)[C@@H](O)CO)C[C@@]4(C)[C@@H](C)O)ccc3OC)C2)nc1
(2) CCc1ccc(N2CC(Oc3cc([C@@H]4CN(C(=O)[C@@H](O)CO)C[C@@]4(C)[C@@H](C)O)ccc3OC)C2)nc1
(3) CCc1nc(N2CC(Oc3cc([C@@H]4CN(C(=O)[C@@H](O)CO)C[C@@]4(C)[C@@H](C)O)ccc3OC)C2)ccc1C
Exercise: Ascending sort, IC50. Answer by writing out the labels in the requested order.
Key: 1, 2, 3
(1: 0.68 nM, 2: 1.87 nM, 3: 14.3 nM)

(A) COc1ccc([C@@H]2CN(C(=O)[C@@H](O)CO)C[C@@]2(C)[C@@H](C)O)cc1OC1CN(c2ccc(C)cn2)C1 [Positive control compound, reference compound]
(B) COc1ccc([C@@H]2CN(C(=O)[C@@H](O)CO)C[C@@]2(C)[C@@H](C)O)cc1OC1CN(c2ncc(C)cc2F)C1
Exercise: // which entry has the larger IC50 value, A or B ? To answer, give the label that identifies your chosen option.
Key: A

(P) COc1ccc([C@@H]2CN(C(=O)[C@@H](O)CO)C[C@@]2(C)[C@@H](C)O)cc1OC1CN(c2cc(C)c(C#N)cn2)C1
(Q) COc1ccc([C@@H]2CN(C(=O)[C@@H](O)CO)C[C@@]2(C)[C@@H](C)O)cc1OC1CN(c2cc(C)c(F)cn2)C1
Exercise: // which entry has the larger IC50 value, P or Q ? To answer, give the label that identifies your chosen option.
Key: P
